Test: qHTS Screen of the MIPE 4.0 Collection Against Ewings Sarcoma (RDES) (AID 1259252); further: nearly all actives have a fitted effect of over 35% in size; further: potency means the concentration at half of the fitted maximal effect
Settings: RD-ES Ewing sarcoma viability, CellTiter-Glo, 48 h; series mostly up to 45.8 µM
Experimental: There is a large unmet medical need for treatments for Ewing sarcoma, a pediatric sarcoma. […] Using the NCATS developed oncology compound library called the Mechanism of Interrogation Plate (MIPE), four Ewing sarcoma cell lines were evaluated (TC32, TC71, RDES, EW8). Compounds, in a 12-point titration series, were incubated with cells for 48 hours and the read out was cell viability (CellTiter-Glo from Promega). […]
Results filed as inconclusive are left out. Calls of active or inactive are those of the source. The call rests on the fitted dose curve; in most records, active means well fitted inhibition curve with a large enough effect; inconclusive means small, poorly fitted or top-dose-only effect; inactive means no such curve, though single readings can be large or run the other way.
experimental-readout: Potency

CCCc1nc(C(C)(C)O)c(C(=O)O)n1Cc1ccc(-c2ccccc2-c2nn[nH]n2)cc1 :: inactive
CCOC(=O)N1CCN([N+]([O-])=NOc2ccc([N+](=O)[O-])cc2[N+](=O)[O-])CC1 :: 16.6 µM (active)
Nc1ccn(C[C@@H](CO)OCP(=O)(O)O)c(=O)n1 :: inactive
C[C@H](NC(=O)Cc1cc(F)cc(F)c1)C(=O)N[C@H](C(=O)OC(C)(C)C)c1ccccc1 :: inactive
CC(C=CC=C(C)C=CC1=C(C)CCCC1(C)C)=CC=CC=C(C)C=CC=C(C)C=CC1=C(C)CCCC1(C)C :: 8.33 µM (active)
CC(C)[C@H](CO)Nc1nc(Nc2cccc(Cl)c2)c2ncn(C(C)C)c2n1 :: 5.9 µM (active)
Cc1onc(-c2ccccc2)c1C(=O)N[C@@H]1C(=O)N2[C@@H](C(=O)O)C(C)(C)S[C@@H]12 :: inactive
CCN(CC)Cc1ccc2cc(COC(=O)Nc3ccc(C(=O)NO)cc3)ccc2c1 :: 0.743 µM (active)
CC(=O)C1=C(O)C=C2Oc3c(C(C)=O)c(O)c(C)c(O)c3C2(C)C1=O (centres undefined) :: inactive
